Reported EC50 values for the following binders.
molecular target: T1, L1 cell adhesion molecule (L1CAM) on the surface of HeLa cells (human, UniProt P32004 20-1257); assay: flow cytometry on HeLa cells, MFI dose-response
T1 construct: whole, on cells; Endogenous L1CAM of HeLa cells ("HeLa cells that highly express human L1CAM"); also called CD171; human L1CAM
T1 sequence (P32004 20-1257): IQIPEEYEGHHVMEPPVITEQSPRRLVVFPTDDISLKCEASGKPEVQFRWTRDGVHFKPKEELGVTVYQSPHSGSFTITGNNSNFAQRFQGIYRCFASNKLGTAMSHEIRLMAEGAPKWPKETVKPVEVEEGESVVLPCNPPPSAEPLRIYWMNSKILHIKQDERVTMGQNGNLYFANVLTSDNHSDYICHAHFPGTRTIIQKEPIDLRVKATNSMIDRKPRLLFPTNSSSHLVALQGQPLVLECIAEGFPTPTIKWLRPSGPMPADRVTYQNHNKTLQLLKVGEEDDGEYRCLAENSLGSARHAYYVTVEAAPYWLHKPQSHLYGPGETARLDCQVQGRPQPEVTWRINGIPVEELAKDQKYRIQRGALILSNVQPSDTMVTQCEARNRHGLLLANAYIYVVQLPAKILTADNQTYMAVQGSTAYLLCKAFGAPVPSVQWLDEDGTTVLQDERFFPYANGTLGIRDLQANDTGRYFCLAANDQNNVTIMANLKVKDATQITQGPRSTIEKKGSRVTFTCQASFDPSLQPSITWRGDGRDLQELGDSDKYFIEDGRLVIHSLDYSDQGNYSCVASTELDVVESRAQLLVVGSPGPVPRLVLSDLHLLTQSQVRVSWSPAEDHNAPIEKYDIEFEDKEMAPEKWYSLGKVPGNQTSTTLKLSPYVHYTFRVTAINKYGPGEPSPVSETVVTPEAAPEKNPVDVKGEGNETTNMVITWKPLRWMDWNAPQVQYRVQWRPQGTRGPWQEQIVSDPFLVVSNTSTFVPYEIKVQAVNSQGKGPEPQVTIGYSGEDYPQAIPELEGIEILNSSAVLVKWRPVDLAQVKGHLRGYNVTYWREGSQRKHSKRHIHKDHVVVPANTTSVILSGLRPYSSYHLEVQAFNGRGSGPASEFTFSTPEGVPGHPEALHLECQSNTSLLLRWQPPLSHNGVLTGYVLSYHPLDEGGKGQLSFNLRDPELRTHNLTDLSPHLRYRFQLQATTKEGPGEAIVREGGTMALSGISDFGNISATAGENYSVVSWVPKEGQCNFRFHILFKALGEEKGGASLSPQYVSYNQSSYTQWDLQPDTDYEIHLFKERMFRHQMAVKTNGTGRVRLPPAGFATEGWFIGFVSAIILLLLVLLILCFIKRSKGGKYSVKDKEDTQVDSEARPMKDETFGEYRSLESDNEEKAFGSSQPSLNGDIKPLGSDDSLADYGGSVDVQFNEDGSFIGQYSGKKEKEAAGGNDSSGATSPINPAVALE
Respond with the bare value in nM.

hz49E10H1H5L7 (antibody, human IgG1, kappa, V domains shown, also called humanized anti-L1CAM antibody) VH: DVQLQESGPGLVKPSQTLSLTCTVSGGSISSDYAWNWIRQPPGKGLEWMGYITYSGTTTYNPSLKSRITISRDTSKNQFSLKLSSVTAADTAVYYCARDHYGNYAYFDYWGQGTTVTVSS VL: QIQMTQSPSSLSASVGDRVTITCRASSSVSFMHWYQQKPGKAPKPWIYASSNLVSGVPSRFSGSGSGTDYTLTISSLQPEDFATYYCQQWSSNPSTFGGGTKVEIKR = 0.377

Ask | // lookup EC50 for hz103E9B3H5L5 (antibody, human IgG1, kappa, V domains shown, also called humanized anti-L1CAM antibody) VH: EVQLVQSGAEVKKPGASVKVSCKASGYTFTSYTMHWVRQAPGQGLEWMGDINPNYGGTSYNEKFKDRVTMTTDTSTSTAYMELRSLRSDDTAVYYCAREGATGTWYFDVWGQGTTVTVSS VL: DIQMTQSPSSLSASVGDRVTITCSASSSVSFMFWYQQKPGKAPKPLIYLTSNLASGVPSRFSGSGSGTDFTLTISSLQPEDFATYYCQQWRSNPPTFGGGTKVEIKR
Reply | 1.68
